- experiment.summary: chemical genetic growth profiling, strain panel (AID 1159580);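 also: tested at 20 µM; growth read once vehicle control cultures reached saturation at 30 °C; 1 = growth at the plate median or of vehicle wells; lower values mean less growth of the strain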
- conditions.used: S. cerevisiae deletion strains, growth OD, locus YLR370C, strain arc18, stronger effect = lower value
In all, about 5,500 compounds went through this assay and about 2,000 (36%) were called active. Not shown: some 18% with an inconclusive outcome. Some of the results follow.
assay.readout: normalized growth
Reply briefly: the number, and no unit.

Worked set:
CC(=O)[C@H]1CCC2C3CC=C4C[C@@H](O)CC[C@]4(C)C3CC[C@@]21C (some centres undefined) = 0.987
O=C(O)/C=C(\CC(=O)O)C(=O)O = 0.997
CC1=C2C(=CO[C@H](C)[C@H]2C)C(=O)C(C(=O)O)=C1O = 0.972
Cn1c(=O)c2[nH]c(C3CCCC3)nc2n(C)c1=O = 0.997
O=C1CCc2cc(OCCCCc3nnnn3C3CCCCC3)ccc2N1 = 0.99
C=C1C2CC[C@@]3(C)[C@H](c4ccoc4)OC(=O)C[C@]13O[C@H]1CC(=O)C(C)(C)[C@H](C(O)C(=O)OC)[C@@]21C (some centres undefined) = 1.01
CC1=CCc2c(cc3oc(C)cc(=O)c3c2O)OC1 = 0.998
O=c1oc2ccccc2c(O)c1Cc1c(O)c2ccccc2oc1=O = 1
CC(=O)N(O)CCCCCNC(=O)CCC(=O)N(O)CCCCCNC(=O)CCC(=O)N(O)CCCCCN = 1
S=c1ccss1 = 0.929

normalized growth in this record for CC(=O)O[C@H]1C[C@@H](O)C(C)(C)C2C[C@@H](OC(C)=O)[C@]3(C)C(CC[C@@]4(C)[C@H](c5ccoc5)OC(=O)C5OC543)[C@]21C (some centres undefined) : 0.999

normalized growth in this record for CC(C)c1ccc2c(c1O)CC[C@H]1C3=C(CC[C@]21C)C(=O)OC3 : 0.965

normalized growth in this record for C=CCc1ccccc1OCC(O)CNC(C)C (centres undefined) : 1.01

normalized growth in this record for C[N+]1(CCCCC[N+]2(C)CCCC2)CCCC1 : 1

normalized growth in this record for NCC(=O)CCC(=O)O : 1.01

normalized growth in this record for CC(=O)O[C@@H]1CC2C(C)(C)C(=O)CC[C@]2(C)C2CC[C@@]3(C)[C@H](c4ccoc4)OC(=O)C4OC43[C@@]21C (some centres undefined) : 0.957

normalized growth in this record for COc1ccc(-c2cc(=O)c3ccccc3o2)cc1OC : 0.894

normalized growth in this record for O=C1CC[C@]23C=CC(=O)NCCCCNCCCNC(=O)/C=C/c4ccc(c2c4)O[C@@H]3C1 : 1.02

normalized growth in this record for NCCc1ccc(O)cc1 : 0.984

normalized growth in this record for O=C1CN2Cc3c(ccc(Cl)c3Cl)N=C2N1 : 0.97

normalized growth in this record for CCCCC1C(=O)N(c2ccccc2)N(c2ccccc2)C1=O : 0.973

normalized growth in this record for O=c1c(-c2ccccc2)coc2cc(O)cc(O)c12 : 1.01

normalized growth in this record for [N-]=[N+]=CC(=O)OCC(N)C(=O)O (centres undefined) : 1.01

normalized growth in this record for COc1cc([C@@H]2c3cc4c(cc3C(O[C@@H]3O[C@@H]5CO[C@@H](c6cccs6)OC5[C@H](O)[C@H]3O)C3COC(=O)[C@@H]32)OCO4)cc(OC)c1O (some centres undefined) : 0.986

normalized growth in this record for CC1(C)O[C@@H]2CC3C4C[C@H](F)C5=CC(=O)C=CC5(C)C4C(O)CC3(C)[C@]2(C(=O)CO)O1 (some centres undefined) : 0.981

normalized growth in this record for O=c1cc(-c2ccc(O)c(O)c2)oc2ccccc12 : 0.993

normalized growth in this record for NS(=O)(=O)c1cc2c(cc1C(F)(F)F)NCNS2(=O)=O : 0.999

normalized growth in this record for O=c1c2ccccc2[se]n1-c1ccccc1 : 0.0623

normalized growth in this record for NCCc1ccc(O)c(O)c1 : 1.01

Values compiled from PubChem BioAssay AID1159580.
